Hello, the source for this data is ChEMBL document CHEMBL1132432, in case you need it.

target: UniProt:Q72547; conditions: MT4
Description: Inhibitory activity against HIV-1 Ile 100 mutant in MT-4 cells.
endpoint_name: ED50

Example entries begin here.
# compound, result
records = [
    ("O=C(Nc1ccc(Cl)cn1)NC1CC1c1c(F)ccc(O)c1Cl (stereo not given)", "> 5 µM"),
    ("CN(C)c1ccc(F)c(CCNC(=O)Nc2ccc(Br)cn2)c1F", "> 20 µM"),
    ("CCOc1ccc(Cl)c(C2CC2NC(=O)Nc2cc(Cl)cnn2)c1F (stereo not given)", "> 5 µM"),
    ("CCOc1ccc(F)c(CCNC(=O)Nc2ccc(Br)cn2)c1Cl", "> 10 µM"),
]

Next item in the queue.
[ask] Can you look up the measured ED50 of COc1c(C(C)=O)ccc(F)c1CCNC(=O)Nc1ccc(Cl)cn1 for me?
[reply] > 5 µM

====

target: UniProtKB Q72547; experiment: HIV-1 reverse transcriptase inhibitory activity against Ile 100 mutant using (poly)rC600*(oligo)dGT as template primer.
endpoint_name: IC50 (µM)
Answers are plain numbers, in µM.

Example entries begin here.
# molecule, measurement_unit, IC50
records = [
    ("CCC(=O)c1ccc(F)c(C2CC2NC(=O)Nc2ccc(Cl)cn2)c1O (stereo in doubt; 19)", "µM", 0.115),
    ("COc1ccc2c(c1)N(C(=O)OC(C)C)C(CSC)C(S)=N2 (stereo not drawn)", "µM", 0.009),
    ("CCOc1ccc(Cl)c(C2CC2NC(=O)Nc2cc(Cl)cnn2)c1F (stereo not drawn)", "µM", 1),
]

Respectfully, I request IC50 for each entry included below.
1. CCOc1ccc(F)c(C2CC2NC(=O)Nc2ccc(C#N)cn2)c1Cl (stereo not drawn)
2. COc1ccc(C(C)=O)c(F)c1CCNC(=O)Nc1ccc(Cl)cn1
3. CCOc1ccc(Cl)c(C2CC2NC(=O)Nc2ccc(Cl)cn2)c1F (stereo not drawn)
4. CCC(=O)c1ccc(F)c(C2CC2NC(=O)Nc2ccc(C#N)cn2)c1O (stereo not drawn)
5. CCOc1ccc(Cl)c(C2CC2NC(=O)Nc2ccc(C#N)cn2)c1F (stereo not drawn)
6. COc1c(C(C)=O)ccc(F)c1CCNC(=O)Nc1ccc(Cl)cn1
7. CCC(=O)c1ccc(F)c(C2CC2NC(=O)Nc2ccc(Br)cn2)c1O (stereo in doubt; 17)

[reply]
1: 0.2; 2: 11.2; 3: 0.052; 4: 0.032; 5: 0.027; 6: 26.2; 7: 0.171

Respectfully, I request IC50 for each entry included below.
1. CC(=O)c1ccc(F)c(C2CC2NC(=O)Nc2ccc(Br)cn2)c1O (stereo not drawn)
2. CCOc1ccc(F)c(C2CC2NC(=O)Nc2cc(Cl)cnn2)c1Cl (stereo not drawn)

[reply]
[0.018, 0.14]

====

biological target: Human immunodeficiency virus type 1 reverse transcriptase (Human immunodeficiency virus 1) (UniProt Q72547); details: MT4
Description: Inhibitory activity against HIV-1 Cys 181 mutant in MT-4 cells.
endpoint_name: ED50

# compound, ED50
measured = [
    ("COc1c(C(C)=O)ccc(F)c1CCNC(=O)Nc1ccc(Cl)cn1", "> 5 µM"),
    ("O=C(Nc1ccc(Cl)cn1)NC1CC1c1c(F)ccc(O)c1Cl (stereo not given)", "> 5 µM"),
    ("COc1ccc(OC)c(CCNC(=O)Nc2ccc(Cl)cn2)c1F", "> 5 µM"),
    ("COc1ccc(C(C)=O)c(F)c1CCNC(=O)Nc1ccc(Cl)cn1", "> 20 µM"),
]

Next item in the queue.
[ask] Can you look up the measured ED50 of CCOc1ccc(Cl)c(C2CC2NC(=O)Nc2cc(Cl)cnn2)c1F (stereo not given) for me?
[reply] > 5 µM
